Parameter Bliss excess: see the listing below.
test system: U-87-MG (Glioblastoma); assay: Bliss excess, mean over the matrix (fraction); higher = more synergy;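 further: after 72 h of two-drug dosing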
Would you mind answering with just the numeric figure?

Recorded result, CC(=O)c1c(C)c2cnc(Nc3ccc(N4CCNCC4)cn3)nc2n(C2CCCC2)c1=O [Palbociclib] + CN(CC[C@H](CSC1=CC=CC=C1)NC2=C(C=C(C=C2)S(=O)(=O)NC(=O)C3=CC=C(C=C3)N4CCC(CC4)[C@H](C5=CC=CC=C5C6=CC=C(C=C6)Cl)O)S(=O)(=O)C(F)(F)F)CCO [AZD4320] (first compound max 10 µM, 7x7, partner max 1 µM) , Bliss excess: -0.0528

// CC1(C)CCC(CN2CCN(c3ccc(C(=O)NS(=O)(=O)c4ccc(NCC5CCOCC5)c([N+](=O)[O-])c4)c(Oc4cnc5[nH]ccc5c4)c3)CC2)=C(c2ccc(Cl)cc2)C1 [Venetoclax] + C1CN(CCC1(C(=O)N[C@@H](CCO)C2=CC=C(C=C2)Cl)N)C3=NC=NC4=C3C=CN4 [Capivasertib] (first compound max 1 µM, 7x7, partner max 3 µM) : Bliss excess value = -0.0214

Reported Bliss excess of CN(CCO)CC[C@H](CSc1ccccc1)Nc1ccc(S(=O)(=O)NC(=O)c2ccc(N3CCC([C@@H](O)c4ccccc4-c4ccc(Cl)cc4)CC3)cc2)cc1S(=O)(=O)C(F)(F)F [AZD4320] + Cn1cnc2c(F)c(Nc3ccc(Br)cc3Cl)c(C(=O)NOCCO)cc21 [Selumetinib] (first compound max 1 µM, 7x7, partner max 3 µM) : -0.0117

Next:
# molecule Cc1c2c(nn1C)CSCc1cc(n(C)n1)CSc1cc(c3ccccc3c1)OCCCc1c(C(=O)O)n(C)c3c-2c(Cl)ccc13 [AZD5991] + C[C@@H]1COCCN1C2=NC(=NC(=C2)C3(CC3)[S@](=N)(=O)C)C4=C5C=CNC5=NC=C4 [AZD6738] (first compound max 1 µM, 7x7, partner max 10 µM) ; its Bliss excess = -0.0241

// COc1nnc2ccc(N3CCC(c4ccc(OCCN5CCN(C)C(=O)[C@H]5C)cc4)CC3)nn12 [AZD5153] + Cn1cnc2c(F)c(Nc3ccc(Br)cc3Cl)c(C(=O)NOCCO)cc21 [Selumetinib] (first compound max 1 µM, 7x7, partner max 10 µM) : Bliss excess value = -0.0591

The molecule Cn1cnc2c(F)c(Nc3ccc(Br)cc3Cl)c(C(=O)NOCCO)cc21 [Selumetinib] + C[C@@H]1COCCN1C2=NC(=NC(=C2)C3(CC3)[S@](=N)(=O)C)C4=C5C=CNC5=NC=C4 [AZD6738] (first compound max 10 µM, 7x7, partner max 10 µM) showed Bliss excess equal to 0.0075
